Reference source for all entries: patent US20100029554A1

Recorded measurements of cAMP, GLP-1 CYCLASE (6-23) EC50, one per entry
# TARGET_UNDER_TEST: T1, GLP-1 receptor, endogenous in RINm5f cells (rat (RIN-m5F are called rat pancreas …, UniProt P32301 22-463))
# T1 sequence (looked up): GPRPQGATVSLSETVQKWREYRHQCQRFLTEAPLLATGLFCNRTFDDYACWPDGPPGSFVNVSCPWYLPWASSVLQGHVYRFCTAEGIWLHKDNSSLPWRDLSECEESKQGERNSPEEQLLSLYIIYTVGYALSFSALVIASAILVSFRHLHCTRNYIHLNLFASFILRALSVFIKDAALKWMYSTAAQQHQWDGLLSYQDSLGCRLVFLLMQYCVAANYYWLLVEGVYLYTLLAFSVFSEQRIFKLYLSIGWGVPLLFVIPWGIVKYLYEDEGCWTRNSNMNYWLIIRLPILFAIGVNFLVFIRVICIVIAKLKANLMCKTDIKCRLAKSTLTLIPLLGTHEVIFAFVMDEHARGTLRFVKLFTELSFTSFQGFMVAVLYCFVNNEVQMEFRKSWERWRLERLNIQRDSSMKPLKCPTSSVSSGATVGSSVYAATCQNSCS
# METHOD_SUMMARY: cell-based or functional assay
Where no end group is shown, it is not given here.

BINDER: HGEGTFTSDLSKQLEEEAVRLFIEWLKNGGPSKAIIS [Cmpd 5446]
cAMP, GLP-1 CYCLASE (6-23) EC50: 100 pM

BINDER: HGEGTFTSDLSKQLEEEAVRLFIEWLKNGGPSKEIAS [Cmpd 5445]
cAMP, GLP-1 CYCLASE (6-23) EC50: 90 pM

BINDER: HGEGTFTSDLSKQLEEEAVRLFIEWLKNGGPSKEIIA [Cmpd 5444]
cAMP, GLP-1 CYCLASE (6-23) EC50: 90 pM

BINDER: HGEGTFTSDLSKQLEEEAVRLFIEWLKNGKPAKIRYS [Cmpd 5443]
cAMP, GLP-1 CYCLASE (6-23) EC50: 80 pM

BINDER: HGEGTFTSDLSKQLEEEAVRLFIEWLKNGKPKAIRYS [Cmpd 5442]
cAMP, GLP-1 CYCLASE (6-23) EC50: 100 pM

BINDER: HGEGTFTSDLSKQLEEEAVRLFIEWLIKGKP [Cmpd 5227]
cAMP, GLP-1 CYCLASE (6-23) EC50: 629 pM

BINDER: HGEGTFTSDLSKQLEEEAVRLFIEWLKNGKPKKARYS [Cmpd 5441]
cAMP, GLP-1 CYCLASE (6-23) EC50: 128 pM

BINDER: HGEGTFTSDLSKQLEEEAVRLFIEWLKNGKPKKIRYA [Cmpd 5439]
cAMP, GLP-1 CYCLASE (6-23) EC50: 170 pM

BINDER: HGEGTFTSDLSKQLEEEAVRLFIEWLKNGKPGKGKIRYS [Cmpd 5295]
cAMP, GLP-1 CYCLASE (6-23) EC50: 89 pM

BINDER: HGEGTFTSDLSKQLEEEAVRLFIEWLKNGKPKKIAYS [Cmpd 5440]
cAMP, GLP-1 CYCLASE (6-23) EC50: 130 pM

BINDER: HGEGTFTSDLVKILEAEAVRKFIEFLKNGGPSSGAPPPS-NH2 [Cmpd 5529]
cAMP, GLP-1 CYCLASE (6-23) EC50: 388 pM
